For each record, write down the corresponding viability at 50 µM.
- Tested on: PC-3
- TEST: Cytotoxicity against human PC3 cells assessed as cell viability at 50 uM after 72 hrs by crystal violet method (reference value: 95.69 +/- 7.66%)
- Assay type: functional
- TEST PARAMETERS: PC-3, 72 h, read-out: Activity

Lookup: Provide measured viability at 50 µM value, entry: CC1=C(CC(=O)O)c2cc(F)ccc2/C1=C\c1ccc(S(C)(=O)=O)cc1 [EXISULIND]
Found: 83.5%

Lookup: Supply recorded viability at 50 µM for CSc1ccc(/C=C2/C(C)=C(CC(=O)/N=c3\c[n+](-c4ccccc4)[n-]o3)c3cc(F)ccc32)cc1 here.
Found: 77%

Lookup: Tell me measured viability at 50 µM for CSc1ccc(/C=C2/C(C)=C(CC(=O)OCCO[N+](=O)[O-])c3cc(F)ccc32)cc1 please.
Found: 91.2%

Lookup: Output viability at 50 µM of CSc1ccc(/C=C2/C(C)=C(CC(=O)OCC#CCOc3no[n+]([O-])c3S(=O)(=O)c3ccccc3)c3cc(F)ccc32)cc1
Found: 14.9%

Lookup: Provide viability at 50 µM value for the following molecule: CSc1ccc(/C=C2/C(C)=C(CC(=O)OC(CO[N+](=O)[O-])CO[N+](=O)[O-])c3cc(F)ccc32)cc1
Found: 93.5%

Lookup: Give the measured viability at 50 µM for CC1=C(CC(=O)OCC(CO[N+](=O)[O-])(CO[N+](=O)[O-])CO[N+](=O)[O-])c2cc(F)ccc2/C1=C\c1ccc(S(C)(=O)=O)cc1
Found: 95.3%

Lookup: Given CC1=C(CC(=O)OCC#CCOc2no[n+]([O-])c2S(=O)(=O)c2ccccc2)c2cc(F)ccc2/C1=C\c1ccc(S(C)(=O)=O)cc1 , respond with its viability at 50 µM.
Found: 27.3%

Lookup: Given the molecule CSc1ccc(/C=C2/C(C)=C(CC(=O)OCc3cccc(Oc4no[n+]([O-])c4S(=O)(=O)c4ccccc4)c3)c3cc(F)ccc32)cc1 , write its reported viability at 50 µM.
Found: 82.7%

Lookup: Please supply the value of reported viability at 50 µM for the item CSc1ccc(/C=C2/C(C)=C(CC(=O)OCCOc3no[n+]([O-])c3S(=O)(=O)c3ccccc3)c3cc(F)ccc32)cc1
Found: 0%

Lookup: Provide measured viability at 50 µM value, entry: CSc1ccc(/C=C2/C(C)=C(CC(=O)NCCOC(=O)/N=c3/c[n+](-c4ccccc4)[n-]o3)c3cc(F)ccc32)cc1
Found: 17.7%

Lookup: Determine from records and report viability at 50 µM for CC1=C(CC(=O)OCCCCCCO[N+](=O)[O-])c2cc(F)ccc2/C1=C\c1ccc(S(C)(=O)=O)cc1
Found: 64%

Lookup: Quote viability at 50 µM reported for CSc1ccc(/C=C2/C(C)=C(CC(=O)O)c3cc(F)ccc32)cc1 [SULINDAC SULFIDE] please.
Found: 105%

Lookup: Report viability at 50 µM for CSc1ccc(/C=C2/C(C)=C(CC(=O)OCCOCCOc3no[n+]([O-])c3S(=O)(=O)c3ccccc3)c3cc(F)ccc32)cc1
Found: 50.8%

Lookup: Query viability at 50 µM for CC1=C(CC(=O)OCc2cccc(Oc3no[n+]([O-])c3S(=O)(=O)c3ccccc3)c2)c2cc(F)ccc2/C1=C\c1ccc(S(C)(=O)=O)cc1
Found: 63.6%

Lookup: Output viability at 50 µM of CSc1ccc(/C=C2/C(C)=C(CC(=O)OCCCCCCOc3no[n+]([O-])c3S(=O)(=O)c3ccccc3)c3cc(F)ccc32)cc1
Found: 29.2%

Lookup: Answer with the recorded viability at 50 µM of CC1=C(CC(=O)OC/C=C\COc2no[n+]([O-])c2S(=O)(=O)c2ccccc2)c2cc(F)ccc2/C1=C\c1ccc(S(C)(=O)=O)cc1 only.
Found: 0%

Lookup: Determine from records and report viability at 50 µM for CC1=C(CC(=O)OCCCCCCO[N+](=O)[O-])c2cc(F)ccc2/C1=C\c1ccc([S+](C)[O-])cc1 (centres undefined)
Found: 88.1%

Lookup: Identify measured viability at 50 µM corresponding to CSc1ccc(/C=C2/C(C)=C(CC(=O)OCC(CO[N+](=O)[O-])(CO[N+](=O)[O-])CO[N+](=O)[O-])c3cc(F)ccc32)cc1
Found: 110%

Lookup: Retrieve viability at 50 µM measured for CC1=C(CC(=O)OCCO[N+](=O)[O-])c2cc(F)ccc2/C1=C\c1ccc(S(C)(=O)=O)cc1 and print it.
Found: 84.4%

Lookup: Quote viability at 50 µM reported for CC1=C(CC(=O)OCCCCCCOc2no[n+]([O-])c2S(=O)(=O)c2ccccc2)c2cc(F)ccc2/C1=C\c1ccc(S(C)(=O)=O)cc1 please.
Found: 15.4%

Lookup: Please give the documented viability at 50 µM of CC1=C(CC(=O)OCCOCCOc2no[n+]([O-])c2S(=O)(=O)c2ccccc2)c2cc(F)ccc2/C1=C\c1ccc([S+](C)[O-])cc1 (centres undefined)
Found: 0%

Lookup: Give reported viability at 50 µM value for CC1=C(CC(=O)NCCOC(=O)/N=c2/c[n+](-c3ccccc3)[n-]o2)c2cc(F)ccc2/C1=C\c1ccc(S(C)(=O)=O)cc1
Found: 37.3%

Lookup: Give reported viability at 50 µM value for CC1=C(CC(=O)OCc2cccc(Oc3no[n+]([O-])c3S(=O)(=O)c3ccccc3)c2)c2cc(F)ccc2/C1=C\c1ccc([S+](C)[O-])cc1 (centres undefined)
Found: 51.9%

Lookup: Indicate its recorded viability at 50 µM; the molecule in question is CC1=C(CC(=O)OCCOCCOc2no[n+]([O-])c2S(=O)(=O)c2ccccc2)c2cc(F)ccc2/C1=C\c1ccc(S(C)(=O)=O)cc1
Found: 0%

Lookup: Give recorded viability at 50 µM. CC1=C(CC(=O)OCC(CO[N+](=O)[O-])(CO[N+](=O)[O-])CO[N+](=O)[O-])c2cc(F)ccc2/C1=C\c1ccc([S+](C)[O-])cc1 (centres undefined)
Found: 89.6%

Lookup: Output viability at 50 µM of CC1=C(CC(=O)OCCOc2no[n+]([O-])c2S(=O)(=O)c2ccccc2)c2cc(F)ccc2/C1=C\c1ccc([S+](C)[O-])cc1 (centres undefined)
Found: 0%

Lookup: Supply measured viability at 50 µM of CC1=C(CC(=O)NCCNC(=O)/N=c2/c[n+](-c3ccccc3)[n-]o2)c2cc(F)ccc2/C1=C\c1ccc([S+](C)[O-])cc1 (centres undefined) in your reply.
Found: 36.3%

Lookup: Return the recorded viability at 50 µM value; entry: CC1=C(CC(=O)OCCOc2no[n+]([O-])c2S(=O)(=O)c2ccccc2)c2cc(F)ccc2/C1=C\c1ccc(S(C)(=O)=O)cc1
Found: 0%

Lookup: Report viability at 50 µM for CSc1ccc(/C=C2/C(C)=C(CC(=O)OCCCCO)c3cc(F)ccc32)cc1
Found: 84%
